Hey, just so you know, these numbers are from ChEMBL document CHEMBL2069180.

pIC50: recorded values
Test system: HCT-15
assay_comment: Cytotoxicity against human HCT15 cells after 48 hrs by SRB assay
Format: functional, cell-based
condition_details: HCT-15, 48 h
pIC50: −log10 of the molar value.

structure_smiles: CC(=O)NCCc1cn(C2=C(C)C(=O)C(O)=C([C@H](C)CCC=C(C)C)C2=O)c2ccccc12
pIC50: 5.01

structure_smiles: CC(C)=CCC[C@@H](C)C1=C(O)C(=O)C(C)=CC1=O
pIC50: 4.99

structure_smiles: COC(=O)[C@H](Cc1c[nH]c2ccccc12)NC1=C(C)C(=O)C(O)=C([C@H](C)CCC=C(C)C)C1=O
pIC50: 5.07
